- target: T1, human C1s (human, UniProt P09871 16-688)
- T1 construct: also called hC1s; serum-derived human C1s (CompTech)
- T1 sequence: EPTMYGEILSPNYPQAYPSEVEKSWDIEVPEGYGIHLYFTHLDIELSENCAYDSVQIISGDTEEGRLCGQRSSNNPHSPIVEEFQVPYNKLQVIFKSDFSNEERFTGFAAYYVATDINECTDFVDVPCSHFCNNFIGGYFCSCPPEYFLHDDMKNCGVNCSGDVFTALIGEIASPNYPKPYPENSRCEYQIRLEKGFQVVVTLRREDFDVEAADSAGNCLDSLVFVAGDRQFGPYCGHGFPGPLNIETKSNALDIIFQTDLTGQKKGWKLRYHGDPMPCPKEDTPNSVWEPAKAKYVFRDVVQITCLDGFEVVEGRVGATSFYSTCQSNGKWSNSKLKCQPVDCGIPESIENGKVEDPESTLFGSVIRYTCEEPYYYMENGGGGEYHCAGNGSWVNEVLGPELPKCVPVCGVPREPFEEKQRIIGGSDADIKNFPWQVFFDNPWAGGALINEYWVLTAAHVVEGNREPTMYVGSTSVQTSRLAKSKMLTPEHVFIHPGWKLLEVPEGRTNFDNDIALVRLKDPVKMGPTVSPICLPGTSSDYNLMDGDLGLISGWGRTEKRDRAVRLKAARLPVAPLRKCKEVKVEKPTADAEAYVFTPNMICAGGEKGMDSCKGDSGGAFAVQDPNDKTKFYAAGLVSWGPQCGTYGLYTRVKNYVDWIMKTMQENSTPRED
- experimental-protocol: SPR, Ab captured; pH 7.4, 1.2 mM Ca
Reported koff is given for each of the following binders.
Could you give me the number in s⁻¹? Just the number is fine.

binder	koff [s⁻¹]
C1_IPN92H0026-SG4GK/IPN93L0021-SK1 (antibody, human IgG4 S228P, kappa, name in Kabat numbering, V domains shown, also called IPN92H0026/IPN93L0021) VH: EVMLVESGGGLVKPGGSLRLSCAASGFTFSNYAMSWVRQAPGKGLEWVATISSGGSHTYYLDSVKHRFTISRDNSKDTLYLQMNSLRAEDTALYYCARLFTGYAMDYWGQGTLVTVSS VL: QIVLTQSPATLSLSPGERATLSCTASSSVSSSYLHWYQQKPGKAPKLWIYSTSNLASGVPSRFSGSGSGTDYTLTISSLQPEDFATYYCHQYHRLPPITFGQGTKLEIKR	0.000472

Now look at this one.
## Input Give the value of koff reported for the following: C1_IPN92H0033-SG4GK/IPN93L0030-SK1 (antibody, human IgG4 S228P, kappa, name in Kabat numbering, V domains shown, also called IPN92H0033/IPN93L0030) VH: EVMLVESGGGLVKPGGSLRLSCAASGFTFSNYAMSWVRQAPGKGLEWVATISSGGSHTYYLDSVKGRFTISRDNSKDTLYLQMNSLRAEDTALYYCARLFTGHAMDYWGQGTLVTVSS VL: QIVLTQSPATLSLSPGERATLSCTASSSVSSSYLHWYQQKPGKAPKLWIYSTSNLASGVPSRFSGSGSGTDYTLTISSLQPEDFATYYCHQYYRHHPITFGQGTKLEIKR
## Output 0.0146
